Molecular target: Cathepsin S (UniProt P25774)
Assay: Cathepsin enzyme inhibition assay (fluorogenic peptide substrate Z-Val-Val-Arg-AMC), Cathepsin S
Type: biochemical, human and mouse
Settings: enzyme 1 nM, substrate 20 μM, pH 6.5; read-out: CatS IC50
Counter-ions that a name gives are not always drawn.
measure name: IC50

The molecule `Cc1cc(N2C[C@H](S(=O)(=O)c3ccccc3C(F)(F)F)C[C@@H]2C(=O)NC2(C#N)CC2)n(CC(C)C)n1` showed IC50 equal to 150 nM

The molecule `N#CC1(NC(=O)[C@@H]2C[C@@H](S(=O)(=O)c3ccc(F)cc3Cl)CN2C(=O)C2(c3ccc(Cl)cc3)CC2)CC1` showed IC50 equal to 0.195 nM

The molecule `N#CCNC(=O)[C@@H]1C[C@@H](S(=O)(=O)c2ccccc2C(F)(F)F)CN1C(=O)c1ccccc1` showed IC50 equal to 0.5 nM

The molecule `N#CC1(NC(=O)[C@@H]2C[C@@H](S(=O)(=O)c3ccccc3C(F)(F)F)CN2C(=O)C(F)(F)F)CC1` showed IC50 equal to 3.6 nM

The molecule `N#CC1(NC(=O)[C@@H]2C[C@@H](S(=O)(=O)c3ccc(N4CCCCC4)cc3Cl)CN2C=O)CC1` showed IC50 equal to 6.4 nM

The molecule `CS(=O)(=O)[C@@H]1C[C@@H](C(=O)NC2(C#N)CC2)N(C(=O)C2(C(F)(F)F)CC2)C1` showed IC50 equal to 7470 nM

The molecule `N#CC1(NC(=O)[C@@H]2C[C@@H](S(=O)(=O)c3ccc(-n4cccn4)cc3Cl)CN2C(=O)C2(c3ccc(Cl)cc3)CC2)CC1` showed IC50 equal to 0.175 nM

The molecule `Cc1cc(N2C[C@H](S(=O)(=O)c3ccc(N4CCN(C)CC4)cc3C(F)(F)F)C[C@H]2C(=O)NC2(C#N)CC2)n(C2CCOCC2)n1` showed IC50 equal to 0.405 nM

The molecule `N#CC1(NC(=O)[C@@H]2C[C@@H](S(=O)(=O)c3ccc(N4CCn5cnnc5C4)cc3Cl)CN2C(=O)C2(C(F)(F)F)CC2)CC1` showed IC50 equal to 0.12 nM

The molecule `N#CC1(NC(=O)[C@@H]2C[C@@H](S(=O)(=O)c3ccc(N4CCN5CCC[C@H]5C4)cc3Cl)CN2C(=O)C2(C(F)(F)F)CC2)CC1` showed IC50 equal to 0.17 nM

The molecule N#CC1(NC(=O)[C@@H]2C[C@@H](S(=O)(=O)c3ccc(Br)cc3C(F)(F)F)CN2)CC1 [Example 18, hydrochloride] showed IC50 equal to 3.3 nM

src = patent US8163793B2
